# assay: Cell Viability - LYMP2-011 (AID 969);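 also: cells exposed to compound for 24 hours; nearly all actives have a fitted effect of over 60% in size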
# condition set: LYMP2-011 lymphoblastoid cells viability; series mostly up to 92.2 µM
Inconclusive results are not listed. The source made the active and inactive calls. Calls follow the shape of the dose curve; as a rule, active = well fitted cell-killing curve with a large enough effect; inconclusive = small, poorly fitted or top-dose-only effect; inactive = flat fitted curve, though single readings scatter.
Bench note: report the call from active, inactive

Request: Please state the recorded outcome for this compound: C1=CC2C3C=CC(C3)C2C1 (stereo not drawn)
Result: inactive

Request: Then what about the compound `OCc1c[nH]c2ccccc12` ?
Result: inactive

Request: Input `CC(C)(c1ccc(O)cc1)c1ccc(O)cc1`
Result: inactive

Request: How about `Nc1ccc(O)cc1` ?
Result: active

Request: Next record, please: `Cc1ccc(O)cc1`
Result: inactive

Request: Now try CCCCC(CC)COC(=O)c1ccccc1C(=O)O (stereo not drawn) .
Result: inactive

Request: Cool, now `O=C(NO)c1ccccc1`
Result: inactive

Request: Try this compound next: `CCCC(=O)c1cc(O)c(O)cc1O`
Result: inactive

Data credit: PubChem BioAssay (NCATS)
